- assayOverview: BSK_hDFCGF_Proliferation: Cell Proliferation Assessment in the BioMAP Diversity Plus: hDFCGF Assay (AID 2283059);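 note: curves fitted for both rise and fall of signal versus DMSO baseline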
- studyConditions: primary human foreskin fibroblasts
Calls of active or inactive are those of the source. Rule for the calls: active = hit-call score of the fitted dose curve at least 0.9, where 1 is the maximum; inactive = score below 0.9.
observedProperty: AC50

| compound | observedProperty | value |
| --- | --- | --- |
| CNC(=O)Oc1cccc(N=CN(C)C)c1 | AC50 | 24.2 µM (active) |
| CC1(c2ccc(Oc3ccccc3)cc2)OC(=O)N(Nc2ccccc2)C1=O (centres undefined) | AC50 | inactive |
| O=C(O)CCCOc1ccc(Cl)cc1Cl | AC50 | inactive |
| CC1(C)C(C=C(Cl)Cl)C1C(=O)OC(C#N)c1ccc(F)c(Oc2ccccc2)c1 (centres undefined) | AC50 | 13.2 µM (active) |
| COc1cc(OC)nc(NC(=O)NS(=O)(=O)c2cc(NC=O)ccc2C(=O)N(C)C)n1 | AC50 | inactive |
| CNC(=O)CSP(=S)(OC)OC | AC50 | inactive |
| COP(=O)(OC)OC=C(Cl)Cl | AC50 | inactive |
| N#Cc1c(Cl)c(Cl)c(Cl)c(C#N)c1Cl | AC50 | 0.148 µM (active) |
| COC(=O)c1ccccc1S(=O)(=O)NC(=O)Nc1nc(C)nc(OC)n1 | AC50 | inactive |
